- assay_summary: self-splicing fitness, log relative to wild type (ln ratio); higher = more splicing; Tetrahymena group I intron in knt gene, E. coli kanamycin selection, DiMSum; sequences stand for … in CUCUCU…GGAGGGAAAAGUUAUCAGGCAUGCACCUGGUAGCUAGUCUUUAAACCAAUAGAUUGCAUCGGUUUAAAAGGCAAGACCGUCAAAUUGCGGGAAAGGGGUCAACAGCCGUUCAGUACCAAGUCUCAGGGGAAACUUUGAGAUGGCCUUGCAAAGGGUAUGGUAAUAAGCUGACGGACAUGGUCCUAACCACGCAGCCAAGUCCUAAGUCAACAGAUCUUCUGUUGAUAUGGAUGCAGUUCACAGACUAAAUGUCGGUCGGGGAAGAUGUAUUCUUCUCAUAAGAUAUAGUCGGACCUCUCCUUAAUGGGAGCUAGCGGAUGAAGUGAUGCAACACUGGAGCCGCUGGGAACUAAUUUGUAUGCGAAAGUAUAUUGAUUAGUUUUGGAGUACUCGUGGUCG;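 also: selection with 25 µg/mL kanamycin versus none on LB agar overnight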
- condition_set: 37 °C
Could you please report measured self-splicing fitness (ln) for the items listed next?
# answer = number (no unit)

# input Answer with the recorded self-splicing fitness (ln) for the sequence listed here: UCUAAGCAAUAUUACGCGCC
# output -2.67

# input Please report self-splicing fitness (ln) for the following sequence: AGGCAGCAAUAUUACGGUCA
# output -0.148

# input Quickly give me recorded self-splicing fitness (ln) for UCGCAGCAAUAUUACGCCAG
# output -1.72

# input Give self-splicing fitness (ln) for AUUUAGCAAUAUUACGACGU
# output 0.539

# input Identify measured self-splicing fitness (ln) corresponding to AUGCAGCAAUAUUACGACCC
# output -0.303

# input Could you please provide reported self-splicing fitness (ln) for ACCAAGCAAUAUUACGUGAA ? Thanks!
# output -1.54

# input Fill in self-splicing fitness (ln) for record GCCCAGCAAUAUUACGAGCG
# output -1.17

# input Find the measured self-splicing fitness (ln) of AUAUAGCAAUAUUACGUAGA and report it.
# output -1.87

# input Give the reported value of self-splicing fitness (ln) for this record: UGCAAGCAAUAUUACGUGUU
# output -1.52

# input Return the recorded self-splicing fitness (ln) value; entry: AUACAGCAAUAUUACGCCUU
# output -0.208

# input Return the recorded self-splicing fitness (ln) value; entry: GAGUAGCAAUAUUACGGAAG
# output -2.71

# input Look up and state reported self-splicing fitness (ln) for GGAUAGCAAUAUUACGACUA
# output -1.11

# input Input CGGAAGCAAUAUUACGACGC , output reported self-splicing fitness (ln).
# output -0.637

# input Supply self-splicing fitness (ln) value. Item: CAUAAGCAAUAUUACGGCAG
# output -0.545

# input Fill in self-splicing fitness (ln) for record GCAAAGCAAUAUUACGACUG
# output -0.673

# input Look up and report measured self-splicing fitness (ln) for this entry: AAAAAGCAAUAUUACGCACU
# output 0.322

====

- assay_summary: self-splicing fitness, log relative to wild type (ln ratio); higher = more splicing; Tetrahymena group I intron in knt gene, E. coli kanamycin selection, DiMSum; sequences stand for … in CUCUCU…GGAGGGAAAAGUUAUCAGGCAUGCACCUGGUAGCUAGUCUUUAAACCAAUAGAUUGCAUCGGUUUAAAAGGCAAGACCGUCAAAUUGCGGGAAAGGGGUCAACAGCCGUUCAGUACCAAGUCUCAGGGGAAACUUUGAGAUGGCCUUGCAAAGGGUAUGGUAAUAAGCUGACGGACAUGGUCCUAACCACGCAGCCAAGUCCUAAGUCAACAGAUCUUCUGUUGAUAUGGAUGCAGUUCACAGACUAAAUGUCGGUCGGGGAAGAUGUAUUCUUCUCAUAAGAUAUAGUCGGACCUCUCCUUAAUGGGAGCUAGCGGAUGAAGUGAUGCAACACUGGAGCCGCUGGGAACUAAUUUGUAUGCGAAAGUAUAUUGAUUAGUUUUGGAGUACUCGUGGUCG
- condition_set: 37 °C
measured_property: self-splicing fitness (ln)
Output: the number by itself.

# input Using the record for ACUAAGCAAUAUUACGAGCC , state its measured self-splicing fitness (ln).
# output -1.62

# input Provide measured self-splicing fitness (ln) value, entry: UGACAGCAAUAUUACGAAGU
# output -2.91

# input For the sequence CGACAGCAAUAUUACGGCUC , give its reported self-splicing fitness (ln).
# output -1.89

# input Fill in self-splicing fitness (ln) for record GUUCAGCAAUAUUACGUAAG
# output 0.5

# input Input AAGAAGCAAUAUUACGAUCA , output reported self-splicing fitness (ln).
# output -0.229

# input Please give measured self-splicing fitness (ln) of the following entry: UCCAAGCAAUAUUACGGUAA
# output 0.257

# input Determine from records and report self-splicing fitness (ln) for AAGCAGCAAUAUUACGGGAA
# output -2.15

# input Tell me self-splicing fitness (ln) reported for CUUCAGCAAUAUUACGCUAG
# output -1.34

# input Dear colleague, please send me the reported self-splicing fitness (ln) for CGUAAGCAAUAUUACGAGCC when you can.
# output -1.87

# input Please report self-splicing fitness (ln) for the following sequence: GCCAAGCAAUAUUACGCUAU
# output -0.923

# input Indicate the recorded self-splicing fitness (ln) value for this sequence: GAUGAGCAAUAUUACGUGUG
# output -1.45

# input Consider the sequence UAGCAGCAAUAUUACGGUUA . State its measured self-splicing fitness (ln).
# output -0.181

# input Look up and state reported self-splicing fitness (ln) for UAGCAGCAAUAUUACGUAAC
# output -2.42

# input Give self-splicing fitness (ln) for the following sequence: CUGAAGCAAUAUUACGCGGU
# output -0.746

# input Please look at this sequence and report its self-splicing fitness (ln): GACGAGCAAUAUUACGCACA
# output -0.917

# input Give the reported value of self-splicing fitness (ln) for this record: UGUAAGCAAUAUUACGCGGA
# output -1.29
